target: Monoamine transporters; serotonin & dopamine (UniProt P31645+Q01959); experiment: Selectivity, ratio of binding to serotonin transporter (SERT) and dopamine transporter (DAT); format: protein assay; conditions: Cercopithecidae
Sequence (Q01959 whole entry, looked up, one chain of several): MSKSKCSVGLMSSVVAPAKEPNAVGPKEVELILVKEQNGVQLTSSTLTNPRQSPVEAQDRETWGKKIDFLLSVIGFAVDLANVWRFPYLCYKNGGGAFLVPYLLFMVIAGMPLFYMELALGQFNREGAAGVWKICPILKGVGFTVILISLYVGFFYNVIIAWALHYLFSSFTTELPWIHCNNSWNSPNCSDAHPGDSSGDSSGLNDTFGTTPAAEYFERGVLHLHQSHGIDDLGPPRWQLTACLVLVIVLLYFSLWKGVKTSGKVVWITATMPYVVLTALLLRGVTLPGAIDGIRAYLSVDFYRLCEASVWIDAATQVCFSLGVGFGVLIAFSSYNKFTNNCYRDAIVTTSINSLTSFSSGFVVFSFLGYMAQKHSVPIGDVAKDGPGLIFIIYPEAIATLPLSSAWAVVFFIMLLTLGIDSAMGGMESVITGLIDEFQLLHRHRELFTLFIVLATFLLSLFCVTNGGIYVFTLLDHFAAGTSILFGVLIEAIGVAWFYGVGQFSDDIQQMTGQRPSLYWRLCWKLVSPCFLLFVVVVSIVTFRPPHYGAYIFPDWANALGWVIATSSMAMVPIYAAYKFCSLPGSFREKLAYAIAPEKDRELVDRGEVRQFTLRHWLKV
Class boundaries, taken from values of Selectivity, are as follows: Low (below 10), Medium (10 to below 70), High (70 or more)

These solved cases illustrate the format of a correct answer.
>>> qualitative_label("COC(=O)[C@H]1C2CCC(C2)C[C@@H]1c1ccc(Cl)c(Cl)c1 (stereo in doubt; 9a)")
"Medium"
>>> qualitative_label("COC(=O)C1=C(c2ccc3ccccc3c2)CC2CCC1C2 (configuration not stated)")
"High"
>>> qualitative_label("COC(=O)[C@H]1C2CCC(C2)C[C@@H]1c1ccc(Cl)c(Cl)c1 (stereo in doubt; 7a)")
"Low"

// query Note: place this molecule into its band. Item: COC(=O)c1ccccc1-c1ccc(F)cc1
// result Low

// query Another: COC(=O)C1C(c2ccc3ccccc3c2)CC2CCC1N2C (configuration not stated)
// result Low

// query Another: COC(=O)[C@@H]1C2CCC(C2)CC1c1ccc2ccccc2c1 (some centres not stated)
// result Low

// query Another: COC(=O)C1C(c2ccc(Cl)c(Cl)c2)CC2CCC1N2C (stereo in doubt; 13a)
// result High

// query Another: COC(=O)C1=C(c2ccc(Cl)c(Cl)c2)CC2CCC1C2 (configuration not stated)
// result High

// query Another: COC(=O)C1=C(c2ccc(Cl)c(Cl)c2)CC2CCC1N2C (configuration not stated)
// result High

// query Another: COC(=O)C1=C(c2ccc3ccccc3c2)CC2CCC1N2C (configuration not stated)
// result Medium

// query Another: COC(=O)C1C2CCC(C2)CC1c1ccccc1 (configuration not stated)
// result Medium

// query Another: COC(=O)[C@@H]1C2CCC(C2)C[C@@H]1c1ccc(Cl)c(Cl)c1 (some centres not stated)
// result Medium

----------
Below, each entry is listed with its recorded pIC50.
target: Sodium-dependent serotonin transporter (Homo sapiens); experiment: Inhibition of [3H]citalopram binding to the serotonin transporter in cynomolgus (macaca fascicularis) monkey caudate putamen.; type: tissue-based, Cercopithecidae; conditions: target entry is the homologue from another species
# pIC50: negative log10 of molar concentration; output just the value

>>> reported_value("COC(=O)C1C(c2ccc(Cl)c(Cl)c2)CC2CCC1N2C (stereo in doubt; 13a)")
6.45
>>> reported_value("COC(=O)C1=C(c2ccc(F)cc2)CC2CCC1C2 (stereo unspecified)")
4.45
>>> reported_value("COC(=O)C1C(c2ccc(Cl)c(Cl)c2)CC2CCC1N2C (stereo in doubt; 12a)")
8.70
>>> reported_value("COC(=O)[C@H]1C2CCC(C2)C[C@@H]1c1ccc2ccccc2c1 (stereo in doubt; 8b)")
6.09
>>> reported_value("COC(=O)[C@@H]1C2CCC(C2)C[C@@H]1c1ccc2ccccc2c1 (stereo partly specified)")
7.22

Continue with the next compound.
// query Request - read-out pIC50 | tested on Sodium-dependent serotonin transporter (Homo sapiens) | compound COC(=O)[C@@H]1C2CCC(C2)CC1c1ccc2ccccc2c1 (stereo partly specified)
// result 6.97

----------
target: Sodium-dependent serotonin transporter (Homo sapiens, UniProt P31645); test: Inhibition of [3H]citalopram binding to the serotonin transporter in cynomolgus (macaca fascicularis) monkey caudate putamen.; assay type: tissue-based, Cercopithecidae; settings: target entry is the homologue from another species; read-out: IC50
Sequence (P31645 whole entry): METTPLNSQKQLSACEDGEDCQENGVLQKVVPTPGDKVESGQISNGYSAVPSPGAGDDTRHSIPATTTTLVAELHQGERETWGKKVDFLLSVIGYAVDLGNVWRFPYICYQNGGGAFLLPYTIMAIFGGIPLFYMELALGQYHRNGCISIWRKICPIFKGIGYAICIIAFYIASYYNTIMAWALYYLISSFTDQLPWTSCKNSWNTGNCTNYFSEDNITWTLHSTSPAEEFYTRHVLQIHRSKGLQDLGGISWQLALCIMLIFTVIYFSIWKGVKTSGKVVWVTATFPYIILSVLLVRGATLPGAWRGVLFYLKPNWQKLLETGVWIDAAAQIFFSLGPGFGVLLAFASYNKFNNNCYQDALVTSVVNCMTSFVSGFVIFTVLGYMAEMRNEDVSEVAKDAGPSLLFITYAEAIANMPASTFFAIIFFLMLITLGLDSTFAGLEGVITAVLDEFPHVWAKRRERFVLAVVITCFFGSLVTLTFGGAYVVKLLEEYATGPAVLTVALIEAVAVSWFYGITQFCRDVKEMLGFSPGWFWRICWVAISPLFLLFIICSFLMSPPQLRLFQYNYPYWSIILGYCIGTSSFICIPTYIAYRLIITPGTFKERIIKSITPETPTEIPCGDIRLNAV
MEASURED METRIC: IC50 (µM)
Respond with the bare value in µM.

>>> reported_value("COC(=O)C1=C(c2ccc(F)cc2)CC2CCC1N2C (stereo not drawn)")
7.99
>>> reported_value("COC(=O)c1ccccc1-c1ccc(F)cc1")
33
>>> reported_value("COC(=O)c1ccccc1-c1ccc(Cl)cc1")
46

Continue with the next compound.
// query I would be grateful if you could share the reported IC50 for COC(=O)C1=C(c2ccc3ccccc3c2)CC2CCC1N2C (stereo not drawn) .
// result 0.109
